Measured IC50, listed per entry for reference.
# Tested on: STAT1/3 through TYK2/JAK1
# test: IFNa induced STAT phosphorylation in HEK293 cells (SIE-bla reporter gene)
# Assay type: cell-based
# condition-set: Homo sapiens, HEK293; HEK293T-sie-bla cells, IFNa at EC80, 4 hours; read-out: Inhibition of IFNa induced STAT phosphorylation HEK293 cells IC50
readout-name: IC50

compound	experimental-value
COCCn1cnc(-c2cccc(Nc3cc(Nc4cc(C)nc(C)n4)ncn3)c2OC)n1	10 to 100 nM
Cc1cc(Nc2cc(Nc3ncc(C4CCCCO4)cc3N(C)S(C)(=O)=O)ncn2)nc(C)n1 (centres unmarked)	< 10 nM
COc1c(Nc2cc(Nc3cc(C)nc(C)n3)ncn2)cccc1-c1cc(C(F)(F)F)nn1C	> 1000 nM
COc1c(Nc2cc(Nc3cc(C)nc(C)n3)ncn2)cccc1-c1nc(C)n(C2COC2)n1	> 1000 nM
Cc1cc(Nc2cc(Nc3ncc(-c4cnn(C)c4C)cc3N(C)S(C)(=O)=O)ncn2)ncn1	100 to 1000 nM
Cc1cc(Nc2cc(Nc3ncc(-c4ccnn4C)cc3N(C)S(C)(=O)=O)ncn2)nc(C)n1	10 to 100 nM
COc1c(Nc2cc(Nc3cc(C)nc(C)n3)ncn2)cccc1-c1nc(C)n(C)n1	100 to 1000 nM
COc1c(Nc2cc(Nc3cc(C)nc(C)n3)ncn2)ccc(-c2cnn(C)c2C)c1C	10 to 100 nM
COc1ccccc1Nc1cc(Nc2cc(C)nc(C)n2)ncn1	100 to 1000 nM
CN=S(C)(=O)c1cccnc1Nc1cc(Nc2cc(C)nc(C)n2)ncn1 (centres unmarked)	10 to 100 nM
COCCn1cnc(-c2ccnc(Nc3cc(Nc4cc(C)nc(C)n4)ncn3)c2OC)n1	10 to 100 nM
C=Cc1ccc(Nc2cc(Nc3cc(C)nc(C)n3)ncn2)c(N(C)S(C)(=O)=O)c1	< 10 nM
COc1c(Nc2cc(Nc3cc(C)nc(C)n3)ncn2)ccc(F)c1-c1ncn(C)n1	100 to 1000 nM
Cc1c(-c2cnc(Nc3cc(NC(=O)C4CC4)ncn3)c(S(C)(=O)=O)c2)cnn1C	< 10 nM
COc1c(Nc2cc(Nc3cc(C)nc(C)n3)ncn2)ccc(F)c1F	> 1000 nM
COc1c(Nc2cc(Nc3cc(C)nc(C)n3)ncn2)cccc1-c1noc(CN2CCOCC2)n1	10 to 100 nM
Cc1cc(Nc2cc(Nc3ccc(C4CCCO4)cc3N(C)S(C)(=O)=O)ncn2)nc(C)n1 (centres unmarked)	< 10 nM

----------
# Test system: STAT1/3 through TYK2/JAK1
# test: IFNa induced STAT phosphorylation in HEK293 cells (SIE-bla reporter gene)
# Assay type: cell-based
# condition-set: Homo sapiens, HEK293; HEK293T-sie-bla cells, IFNa at EC80, 4 hours; read-out: Inhibition of IFNa induced STAT phosphorylation HEK293 cells IC50
Measured IC50, listed per entry for reference.

compound	IC50
Cc1cc(Nc2cc(Nc3ccccc3N(C)S(=O)(=O)C(F)(F)F)ncn2)nc(C)n1 [Example 71]	0.01 to 0.1 µM
COc1ccc(Nc2cc(Nc3cc(C)nc(C)n3)ncn2)c(OC)c1 [Example 17]	> 1 µM
Cc1cc(Nc2cc(Nc3ncc(-c4nc(C)n(C)n4)cc3N(C)S(C)(=O)=O)ncn2)ncn1 [Example 154]	0.01 to 0.1 µM
COc1cc(C(F)(F)F)ccc1Nc1cc(Nc2cc(C)nc(C)n2)ncn1 [Example 22]	0.1 to 1 µM
COc1c(C)cccc1Nc1cc(Nc2cnn(C3CCOCC3)c2)ncn1 [Example 9]	> 1 µM

----------
Measured pKd, listed per entry for reference.
# tested-on: TYK2 (JH2domain-pseudokinase) (Homo sapiens, UniProt P29597)
# Construct: TYK2 (JH2domain-pseudokinase)-tagged T7 phage strains were prepared in an E. coli host derived from the BL21 strain
# Sequence (P29597 589-875 limits assumed): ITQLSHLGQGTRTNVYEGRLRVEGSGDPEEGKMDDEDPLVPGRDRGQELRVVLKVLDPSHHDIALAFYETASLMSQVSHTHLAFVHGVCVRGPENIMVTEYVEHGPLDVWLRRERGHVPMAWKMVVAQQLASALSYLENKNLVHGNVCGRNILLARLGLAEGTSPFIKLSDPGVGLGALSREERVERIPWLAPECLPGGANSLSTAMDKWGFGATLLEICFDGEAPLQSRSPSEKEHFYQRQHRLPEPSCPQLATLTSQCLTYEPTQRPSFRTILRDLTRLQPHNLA
# test: TYK2 JH2 domain binding assay (KINOMEscan)
pKd: −log10 of the molar value.

molecular-string	pKd
COc1cc(-c2noc(C)n2)ccc1Nc1cc(Nc2cc(C)nc(C)n2)ncn1	8.00 to 9.00
COc1cc(-c2cn(C)cn2)ccc1Nc1cc(Nc2cc(C)nc(C)n2)ncn1	8.00 to 9.00
COc1cc(C(F)(F)F)ccc1Nc1cc(Nc2cc(C)nc(C)n2)ncn1	< 8.00
Cc1cc(Nc2cc(Nc3ncc(-c4ccn(C)n4)cc3N(C)S(C)(=O)=O)ncn2)nc(C)n1	> 9.70

----------
# tested-on: TYK2 (JH2domain-pseudokinase) (Homo sapiens, UniProt P29597)
# Construct: TYK2 (JH2domain-pseudokinase)-tagged T7 phage strains were prepared in an E. coli host derived from the BL21 strain
# test: TYK2 JH2 domain binding assay (KINOMEscan)
pKd: −log10 of the molar value.

molecule	tested-on	pKd
Cc1cc(Nc2cc(Nc3ncc(-c4nccn4C)cc3N(C)S(C)(=O)=O)ncn2)nc(C)n1	TYK2 (JH2domain-pseudokinase) (Homo sapiens, UniProt P29597)	> 9.70
CN(c1ccccc1Nc1cc(NC(=O)C2CC2)ncn1)S(C)(=O)=O	TYK2 (JH2domain-pseudokinase) (Homo sapiens, UniProt P29597)	9.00 to 9.70
CN=S(C)(=O)c1cccnc1Nc1cc(Nc2cc(C)nc(C)n2)ncn1 (centres unmarked)	TYK2 (JH2domain-pseudokinase) (Homo sapiens, UniProt P29597)	> 9.70
COc1cccc(Nc2cc(Nc3cc(C)nc(C)n3)ncn2)c1OC	TYK2 (JH2domain-pseudokinase) (Homo sapiens, UniProt P29597)	9.00 to 9.70
Cc1cc(Nc2cc(Nc3ccc(C4CCOC4)cc3N(C)S(C)(=O)=O)ncn2)nc(C)n1 (centres unmarked)	TYK2 (JH2domain-pseudokinase) (Homo sapiens, UniProt P29597)	> 9.70

----------
Measured pIC50, listed per entry for reference.
# System: STAT1/3 through TYK2/JAK1
# test: IFNa induced STAT phosphorylation in HEK293 cells (SIE-bla reporter gene)
# Type: cell-based
# condition-set: Homo sapiens, HEK293; HEK293T-sie-bla cells, IFNa at EC80, 4 hours; read-out: Inhibition of IFNa induced STAT phosphorylation HEK293 cells IC50
pIC50: −log10 of the molar value.
readout-name: pIC50

molecule	readout-name	experimental-value
COc1cc(C2CCOC2)ccc1Nc1cc(Nc2cc(C)nc(C)n2)ncn1 (centres unmarked)	pIC50	< 6.00
COc1c(Nc2cc(Nc3cc(C)nc(C)n3)ncn2)cccc1-c1nc(C)nn1C	pIC50	6.00 to 7.00
Cc1cc(Nc2cc(Nc3ccccc3C(C)S(C)(=O)=O)ncn2)nc(C)n1 (centres unmarked)	pIC50	6.00 to 7.00
CN(c1ccccc1Nc1cc(Nc2ncn(C)n2)ncn1)S(C)(=O)=O	pIC50	< 6.00
COc1c(Nc2cc(Nc3cc(C)nc(C)n3)ncn2)cccc1-c1ncn(C2CC(O)C2)n1 (centres unmarked)	pIC50	6.00 to 7.00
COc1c(-c2nc(C)n(C)n2)ccnc1Nc1cc(Nc2cc(C)nc(C)n2)ncn1	pIC50	7.00 to 8.00
Cc1cc(Nc2cc(Nc3ncc(-c4c(C)nn(C)c4C)cc3N(C)S(C)(=O)=O)ncn2)nc(C)n1	pIC50	7.00 to 8.00
COc1c(Nc2cc(Nc3cc(C)nc(C)n3)ncn2)cccc1C(F)(F)F	pIC50	< 6.00
COc1c(Nc2cc(Nc3cc(C)nc(C)n3)ncn2)cccc1-c1ncn(CC2CC(F)(F)C2)n1	pIC50	6.00 to 7.00
[2H]C([2H])([2H])N(c1ccccc1Nc1cc(Nc2cc(C)nc(C)n2)ncn1)S(C)(=O)=O	pIC50	> 8.00
COCc1ccc(Nc2cc(Nc3cc(C)nc(C)n3)ncn2)c(N(C)S(C)(=O)=O)c1	pIC50	> 8.00

----------
# Test system: STAT1/3 through TYK2/JAK1
# test: IFNa induced STAT phosphorylation in HEK293 cells (SIE-bla reporter gene)
# Assay type: cell-based
# condition-set: Homo sapiens, HEK293; HEK293T-sie-bla cells, IFNa at EC80, 4 hours; read-out: Inhibition of IFNa induced STAT phosphorylation HEK293 cells IC50
pIC50: −log10 of the molar value.
readout-name: pIC50

compound	experimental-value
Cc1cc(Nc2cc(Nc3ncc(-c4nc(C)nn4C)cc3N(C)S(C)(=O)=O)ncn2)ncn1 [Example 155]	6.00 to 7.00
COc1ccc(C)nc1Nc1cc(Nc2cc(C)nc(C)n2)ncn1 [Example 8]	< 6.00
COc1c(Nc2cc(Nc3cc(C)nc(C)n3)ncn2)cccc1-c1ncc(F)cn1 [Example 31]	6.00 to 7.00
Cc1cc(Nc2cc(Nc3ccc(C4CCOCC4)cc3N(C)S(C)(=O)=O)ncn2)nc(C)n1 [Example 106]	7.00 to 8.00
CN=S(C)(=O)c1c(C)cccc1Nc1cc(Nc2cc(C)nc(C)n2)ncn1 (centres unmarked) [Example 116]	7.00 to 8.00
Cc1cc(Nc2cc(Nc3ccc(-c4nc(C)n(C)n4)cc3N(C)S(C)(=O)=O)ncn2)nc(C)n1 [Example 97]	7.00 to 8.00
COc1c(Nc2cc(Nc3cc(C)nc(C)n3)ncn2)ccc(C)c1-c1ncn(C)n1 [Example 63]	7.00 to 8.00
COc1c(C#N)cccc1Nc1cc(Nc2cc(C)nc(C)n2)ncn1 [Example 16]	< 6.00
[2H]C([2H])([2H])N(c1cccnc1Nc1cc(Nc2cc(C)nc(C)n2)ncn1)S(C)(=O)=O [Example 121]	7.00 to 8.00
Cc1cc(Nc2cc(Nc3ccccc3S(=O)(=O)N3CCCCC3)ncn2)nc(C)n1 [Example 73]	< 6.00
COc1cc(-c2nccn2C)ccc1Nc1cc(Nc2cc(C)nc(C)n2)ncn1 [Example 91]	6.00 to 7.00
Cc1cc(Nc2cc(Nc3ccccc3CS(C)(=O)=O)ncn2)nc(C)n1 [Example 66]	6.00 to 7.00
Cc1cc(Nc2cc(Nc3ccc(C4CCOC4)cc3N(C)S(C)(=O)=O)ncn2)nc(C)n1 (centres unmarked) [Example 111]	7.00 to 8.00
Cc1cc(Nc2cc(Nc3ccccc3S(C)(=O)=O)ncn2)nc(C)n1 [Example 11]	7.00 to 8.00
